# measurement-target: human CGT (ceramide galactosyltransferase), CHO/CGT lysate (Homo sapiens)
# Construct: Full-length human CGT cDNA was cloned into the BamH1/Xho1 site of pcDNA3.1 (+); expressed in transfected cells; host or cells: Chinese hamster ovary (CHO) cells; lysate prepared with M-PER
# Sequence (Q16880 21-541): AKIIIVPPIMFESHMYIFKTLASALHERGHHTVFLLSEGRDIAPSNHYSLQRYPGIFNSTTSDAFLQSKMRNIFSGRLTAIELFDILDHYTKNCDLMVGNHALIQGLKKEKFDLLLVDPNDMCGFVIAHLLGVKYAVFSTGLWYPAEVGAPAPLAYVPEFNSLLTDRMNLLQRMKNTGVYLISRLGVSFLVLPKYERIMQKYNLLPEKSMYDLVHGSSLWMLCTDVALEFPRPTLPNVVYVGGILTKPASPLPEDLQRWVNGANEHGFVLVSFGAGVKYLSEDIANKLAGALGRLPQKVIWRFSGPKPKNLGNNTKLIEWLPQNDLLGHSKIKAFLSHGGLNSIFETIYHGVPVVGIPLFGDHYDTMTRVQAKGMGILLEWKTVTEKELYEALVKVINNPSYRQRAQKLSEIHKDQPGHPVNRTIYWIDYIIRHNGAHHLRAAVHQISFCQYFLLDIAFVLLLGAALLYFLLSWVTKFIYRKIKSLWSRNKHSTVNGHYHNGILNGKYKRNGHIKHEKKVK
# assay-info: CGT enzyme assay, RapidFire/MS/MS readout (Table 1 ranges with one asterisk *)
# Format: biochemical
# experimental-setup: RapidFire method (range with one asterisk *)
value-kind: IC50

[ask] I have this compound here, NC1CCN(C(=O)[C@@H](NS(=O)(=O)c2ccc3c(cnn3CC3CCCC3)c2)C(F)(F)c2ccc(-c3ccc(Cl)cc3)cc2)CC1 [Compound 95-1] , and I need its recorded IC50.
[reply] < 1 µM

[ask] I have this compound here, CCCCOc1ccc(C(F)(F)[C@@H](C(=O)N2CCC(N)CC2)N(C)S(=O)(=O)c2ccc3cc(OC4CCCC4)ccc3c2)cc1 [Compound 53-1] , and I need its recorded IC50.
[reply] 1 to 10 µM

[ask] I have this compound here, NC1CC2CCC(C1)N2C(=O)[C@H](NS(=O)(=O)c1ccc(OCC2CCCCC2)cc1)C(F)(F)c1ccc(C(F)(F)F)cc1 (stereo partly drawn) [Compound 59-2] , and I need its recorded IC50.
[reply] 1 to 10 µM

[ask] I have this compound here, NC1CCN(C(=O)[C@@H](NS(=O)(=O)c2ccc(OCC3CCCCC3)cc2)C(F)(F)c2ccc(OC3CCCCC3)cc2)CC1 [Compound 103-1] , and I need its recorded IC50.
[reply] < 1 µM

[ask] I have this compound here, CN([C@@H](C(=O)N1C2CCC1CC(N)C2)C(F)(F)c1ccc(Cl)cc1)S(=O)(=O)c1ccc2cc(OC3CCCC3)ccc2c1 (stereo partly drawn) [Compound 52-2] , and I need its recorded IC50.
[reply] 30 to 100 µM

[ask] I have this compound here, NC1CC2CCC(C1)N2C(=O)[C@H](NS(=O)(=O)c1ccc(OCC2CCCCC2)cc1)C(F)(F)c1cccc(Oc2ccccc2)c1 (stereo partly drawn) [Compound 113-2] , and I need its recorded IC50.
[reply] 1 to 10 µM

----------
# measurement-target: human CGT (ceramide galactosyltransferase), CHO/CGT lysate (Homo sapiens)
# Construct: Full-length human CGT cDNA was cloned into the BamH1/Xho1 site of pcDNA3.1 (+); expressed in transfected cells; host or cells: Chinese hamster ovary (CHO) cells; lysate prepared with M-PER
# Sequence (Q16880 21-541): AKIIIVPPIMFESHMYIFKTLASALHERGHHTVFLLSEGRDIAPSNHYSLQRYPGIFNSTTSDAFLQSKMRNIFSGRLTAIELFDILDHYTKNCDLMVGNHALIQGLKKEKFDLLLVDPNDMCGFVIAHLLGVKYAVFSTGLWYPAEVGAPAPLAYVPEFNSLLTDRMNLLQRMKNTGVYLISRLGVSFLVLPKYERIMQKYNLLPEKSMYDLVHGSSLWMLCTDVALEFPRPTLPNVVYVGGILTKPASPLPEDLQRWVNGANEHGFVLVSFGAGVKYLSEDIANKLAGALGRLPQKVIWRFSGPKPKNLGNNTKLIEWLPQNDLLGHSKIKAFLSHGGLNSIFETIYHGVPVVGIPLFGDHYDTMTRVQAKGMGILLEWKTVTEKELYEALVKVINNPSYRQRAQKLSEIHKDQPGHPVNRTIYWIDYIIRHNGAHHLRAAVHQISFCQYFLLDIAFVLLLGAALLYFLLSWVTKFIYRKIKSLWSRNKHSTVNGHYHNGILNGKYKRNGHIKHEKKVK
# assay-info: CGT enzyme assay, RapidFire/MS/MS readout with 0.01% Tween added (Table 1 ranges with two asterisks **)
# Assay type: biochemical
# experimental-setup: CGT enzymatic assay; range with two asterisks (**): RapidFire/MS/MS method with 0.01% Tween added
Where a name gives a salt, the structure may show the parent alone.
What IC50 was measured for each of the following?

[ask] I have this compound here, NC1CC2CCC(C1)N2C(=O)[C@H](NS(=O)(=O)c1cc2ccc(OC3CCCC3)cc2s1)C(F)(F)c1ccc(Br)cc1 (stereo partly shown) [Compound 167-2, trifluoroacetate] , and I need its recorded IC50.
[reply] 1 to 10 µM

[ask] I have this compound here, N[C@@H]1CCN(C(=O)[C@@H](NS(=O)(=O)c2ccc(OCC3CCCCC3)cc2)C(F)(F)c2ccc(-c3ccc(Cl)cc3)cc2)C1 [Compound 155-1, trifluoroacetate] , and I need its recorded IC50.
[reply] < 1 µM

[ask] I have this compound here, O=C([C@@H](NS(=O)(=O)c1ccc(OCC2CCCCC2)cc1)C(F)(F)c1ccc(-c2ccc(Cl)cc2)cc1)N1CCNCC1 [Compound 151-1, trifluoroacetate] , and I need its recorded IC50.
[reply] 1 to 10 µM

[ask] I have this compound here, NC1CCN(C(=O)[C@@H](NS(=O)(=O)c2ccc(OCC3CCCCC3)cc2)C(F)(F)c2ccc(-c3ccc(Cl)cc3)cn2)CC1 , and I need its recorded IC50.
[reply] 1 to 10 µM

[ask] I have this compound here, N[C@H]1[C@@H]2CC[C@H]1CN(C(=O)[C@H](NS(=O)(=O)c1ccc3cc(OC4CCCC4)ccc3c1)C(F)(F)c1ccc(-c3ccc(Cl)cc3)cc1)C2 , and I need its recorded IC50.
[reply] 1 to 10 µM

[ask] I have this compound here, NC1CCN(C(=O)[C@@H](NS(=O)(=O)c2ccc3cc(OC4CCCC4)ccc3c2)C(F)(F)c2ccc(-c3ccc(Cl)cc3)cn2)CC1 , and I need its recorded IC50.
[reply] 1 to 10 µM

[ask] I have this compound here, NC1CCN(C(=O)[C@@H](NS(=O)(=O)c2ccc(OCC3CCCCC3)cc2)C(F)(F)c2ccc(-c3ccccc3)cc2)CC1 [Compound 156-1, trifluoroacetate] , and I need its recorded IC50.
[reply] 1 to 10 µM

[ask] I have this compound here, NC1CC2CCC(C1)N2C(=O)[C@@H](NC(=O)[C@H](O)c1ccc2cc(OC3CCCC3)ccc2c1)C(F)(F)c1ccc2cc(Br)ccc2c1 (stereo partly shown) [Compound 158-1, trifluoroacetate] , and I need its recorded IC50.
[reply] 1 to 10 µM

[ask] I have this compound here, C=C(c1ccc(C(F)(F)[C@@H](NS(=O)(=O)c2ccc3cc(OC4CCCC4)ccc3c2)C(=O)N2CCC(N)CC2)cc1)C(F)(F)F , and I need its recorded IC50.
[reply] 1 to 10 µM

[ask] I have this compound here, NC1CCN(C(=O)[C@@H](NS(=O)(=O)c2ccc(OCC3CCCCC3)cc2)C(F)(F)c2ccc(C3(C(F)(F)F)CC3)cc2)CC1 , and I need its recorded IC50.
[reply] 1 to 10 µM

[ask] I have this compound here, O=C([C@@H](NS(=O)(=O)c1ccc2cc(OC3CCCC3)ccc2c1)C(F)(F)c1ccc(-c2ccc(Cl)cc2)cc1)N1Cc2cn[nH]c2C1 , and I need its recorded IC50.
[reply] < 1 µM

[ask] I have this compound here, N[C@H]1CCN(C(=O)[C@@H](NS(=O)(=O)c2ccc3cc(OC4CCCC4)ccc3c2)C(F)(F)c2ccc(-c3ccc(Cl)cc3)cc2)CC1(F)F [Compound 161-3, trifluoroacetate] , and I need its recorded IC50.
[reply] < 1 µM

[ask] I have this compound here, NC1CCN(C(=O)[C@H](NS(=O)(=O)c2ccc3cc(OC4CCCC4)ccc3c2)C(F)(F)c2ccc(-c3ccc(Cl)cc3)cn2)CC1 , and I need its recorded IC50.
[reply] 10 to 30 µM

[ask] I have this compound here, O=C([C@H](NS(=O)(=O)c1ccc(OCC2CCCCC2)cc1)C(F)(F)c1ccc(-c2ccc(Cl)cc2)cc1)N1C[C@H]2CNC[C@H]2C1 [Compound 179-2, trifluoroacetate] , and I need its recorded IC50.
[reply] 30 to 100 µM

[ask] I have this compound here, C=C(c1ccc(C(F)(F)[C@@H](NS(=O)(=O)c2ccc(OCC3CCCCC3)cc2)C(=O)N2CCC(N)CC2)cc1)C(F)(F)F , and I need its recorded IC50.
[reply] 30 to 100 µM

[ask] I have this compound here, N[C@H]1CC2CCC1N2C(=O)[C@H](NS(=O)(=O)c1ccc2cc(OC3CCCC3)ccc2c1)C(F)(F)c1ccc(-c2ccc(Cl)cc2)cc1 (stereo partly shown) , and I need its recorded IC50.
[reply] 10 to 30 µM

[ask] I have this compound here, NC1CC2CCC(C1)N2C(=O)[C@H](NC(=O)[C@@H](O)c1ccc2cc(OC3CCCC3)ccc2c1)C(F)(F)c1ccc2cc(Br)ccc2c1 (stereo partly shown) [Compound 158-2, trifluoroacetate] , and I need its recorded IC50.
[reply] 30 to 100 µM

[ask] I have this compound here, NC1CCN(C(=O)[C@H](NS(=O)(=O)c2ccc(COC3CCCCC3)s2)C(F)(F)c2ccc(-c3ccc(Cl)cc3)cc2)CC1 [Compound 165-1, trifluoroacetate] , and I need its recorded IC50.
[reply] 30 to 100 µM

[ask] I have this compound here, NC1CCN(C(=O)[C@@H](NS(=O)(=O)c2ccc(OCC3CCCCC3)cc2)C(F)(F)c2cccc(-c3ccc(Cl)cc3)c2)CC1 [Compound 181-1, trifluoroacetate] , and I need its recorded IC50.
[reply] 1 to 10 µM

[ask] I have this compound here, N[C@H]1CCN(C(=O)[C@H](NS(=O)(=O)c2ccc3cc(OC4CCCC4)ccc3c2)C(F)(F)c2ccc(-c3ccc(Cl)cc3)cc2)C[C@@H]1F , and I need its recorded IC50.
[reply] 1 to 10 µM

[ask] I have this compound here, NC1CCN(C(=O)[C@H](NC(=O)[C@H](O)c2ccc3cc(OC4CCCC4)ccc3c2)C(F)(F)c2ccc(-c3ccc(Cl)cc3)cc2)CC1 [Compound 159-4, trifluoroacetate] , and I need its recorded IC50.
[reply] 30 to 100 µM

[ask] I have this compound here, NC1CCN(C(=O)[C@H](NS(=O)(=O)c2ccc(CCOC3CCCC3)cc2)C(F)(F)c2ccc(-c3ccc(Cl)cc3)cc2)CC1 , and I need its recorded IC50.
[reply] 30 to 100 µM
